Data provenance: ChEMBL document CHEMBL5724914

- assay.context: human gut metagenome, 24 h, 2 µM; further: call rule not given here
measurement.name: Bacterial Biotransformation

The examples below pair each entry with its known result.
INSERT INTO assay_data (compound, result) VALUES
  ('COc1ccc([C@@H]2Sc3ccccc3N(CCN(C)C)C(=O)[C@@H]2OC(C)=O)cc1', 'Compound metabolized'),
  ('O=C1C(CC[S+]([O-])c2ccccc2)C(=O)N(c2ccccc2)N1c1ccccc1 (centres undefined)', 'Compound metabolized'),
  ('CC(C)c1nc(N(C)S(C)(=O)=O)nc(-c2ccc(F)cc2)c1/C=C/[C@@H](O)C[C@@H](O)CC(=O)[O-].CC(C)c1nc(N(C)S(C)(=O)=O)nc(-c2ccc(F)cc2)c1/C=C/[C@@H](O)C[C@@H](O)CC(=O)[O-].[Ca+2]', 'Compound NOT metabolized'),
  ('C=CC[C@@H]1/C=C(\C)C[C@H](C)C[C@H](OC)[C@H]2O[C@@](O)(C(=O)C(=O)N3CCCC[C@H]3C(=O)O[C@H](/C(C)=C/[C@@H]3CC[C@@H](O)[C@H](OC)C3)[C@H](C)[C@@H](O)CC1=O)[C@H](C)C[C@@H]2OC.O', 'Compound metabolized'),
  ('Br.CN1CCC[C@@H]1Cc1c[nH]c2ccc(CCS(=O)(=O)c3ccccc3)cc12 [ELETRIPTAN HYDROBROMIDE]', 'Compound metabolized');

[Q] Specify measured Bacterial Biotransformation for O=C1CC2(CCCC2)CC(=O)N1CCCCN1CCN(c2ncccn2)CC1 .
[A] Compound metabolized

[Q] Specify measured Bacterial Biotransformation for CC(=O)OCC(=O)NCCCOc1cccc(CN2CCCCC2)c1 [ROXATIDINE ACETATE] .
[A] Compound metabolized

[Q] Specify measured Bacterial Biotransformation for CC(C)(C)NCC(O)COc1cccc2c1CC(O)C(O)C2 (centres undefined) .
[A] Compound NOT metabolized

[Q] Specify measured Bacterial Biotransformation for CCCCC(=O)O[C@]1(C(=O)CO)[C@@H](C)C[C@H]2[C@@H]3CCC4=CC(=O)C=C[C@]4(C)[C@@]3(F)[C@@H](O)C[C@@]21C [BETAMETHASONE VALERATE] .
[A] Compound metabolized

[Q] Specify measured Bacterial Biotransformation for CC[C@H](C)C(=O)O[C@H]1CCC=C2C=C[C@H](C)[C@H](CC[C@@H]3C[C@@H](O)CC(=O)O3)[C@H]21 .
[A] Compound metabolized

---

- measurement.protocol: The drug is tested on Z-026 corresponding to metagenome with ENA study accession number: PRJEB37062 and ENA sample accession number: ERS12561825 for biotransformation under anaerobic condition. The drug concentrations were measured over 9 timepoints collected between 0 and 24 hours of incubation by liquid-chromatography-coupled mass spectrometry (LC–MS)
- assay.context: 2 µM
measurement.name: Bacterial Biotransformation

INSERT INTO measurements (molecule, measurement_name, result) VALUES
  ('C#C[C@]1(OC(C)=O)CC[C@H]2[C@@H]3CCC4=C/C(=N/O)CC[C@@H]4[C@H]3CC[C@@]21CC [NORGESTIMATE]', 'Bacterial Biotransformation', 'Compound NOT metabolized'),
  ('Nc1nc(NC2CC2)c2ncn([C@H]3C=C[C@@H](CO)C3)c2n1.Nc1nc(NC2CC2)c2ncn([C@H]3C=C[C@@H](CO)C3)c2n1.O=S(=O)(O)O [ABACAVIR SULFATE]', 'Bacterial Biotransformation', 'Compound NOT metabolized'),
  ('CC[C@H](C)C(=O)O[C@H]1CCC=C2C=C[C@H](C)[C@H](CC[C@@H]3C[C@@H](O)CC(=O)O3)[C@H]21 [MEVASTATIN]', 'Bacterial Biotransformation', 'Compound metabolized'),
  ('C[N+]12CCC(CC1)C(OC(=O)C(O)(c1ccccc1)c1ccccc1)C2.[Br-] (configuration not stated) [CLIDINIUM BROMIDE]', 'Bacterial Biotransformation', 'Compound NOT metabolized'),
  ('CNNCc1ccc(C(=O)NC(C)C)cc1 [PROCARBAZINE]', 'Bacterial Biotransformation', 'Compound metabolized'),
  ('CC(=O)OCC(=O)NCCCOc1cccc(CN2CCCCC2)c1 [ROXATIDINE ACETATE]', 'Bacterial Biotransformation', 'Compound metabolized'),
  ('CCCC(C)(COC(N)=O)COC(=O)NC(C)C (configuration not stated) [CARISOPRODOL]', 'Bacterial Biotransformation', 'Compound NOT metabolized'),
  ('COc1ccc(C(CN(C)C)C2(O)CCCCC2)cc1 (configuration not stated) [VENLAFAXINE]', 'Bacterial Biotransformation', 'Compound NOT metabolized'),
  ('c1ccc2[nH]c(-c3cscn3)nc2c1 [THIABENDAZOLE]', 'Bacterial Biotransformation', 'Compound NOT metabolized'),
  ('O=C1C(CC[S+]([O-])c2ccccc2)C(=O)N(c2ccccc2)N1c1ccccc1 (configuration not stated) [SULFINPYRAZONE]', 'Bacterial Biotransformation', 'Compound metabolized');

Please look at the following molecule next.
[Q] Specify measured Bacterial Biotransformation for CCN(CC)CCOC(=O)C1(C2CCCCC2)CCCCC1 [DICYCLOMINE] .
[A] Compound NOT metabolized

---

- measurement.protocol: The drug is tested on WLS-010 corresponding to human gut metagenome with ENA study accession number: PRJEB37062 and ENA sample accession number: ERS12561743 for biotransformation under anaerobic condition. The drug concentrations were measured over 9 timepoints collected between 0 and 24 hours of incubation by liquid-chromatography-coupled mass spectrometry (LC–MS)
- assay.context: 2 µM
measurement.name: Bacterial Biotransformation

The examples below pair each entry with its known result.
INSERT INTO measurements (compound, result) VALUES
  ('Cc1cc2c(s1)Nc1ccccc1N=C2N1CCN(C)CC1 [OLANZAPINE]', 'Compound NOT metabolized'),
  ('COCCCC/C(=N\OCCN)c1ccc(C(F)(F)F)cc1.O=C(O)/C=C\C(=O)O [FLUVOXAMINE MALEATE]', 'Compound NOT metabolized'),
  ('C[C@]12CCC(=O)C=C1[C@@H]1C[C@@H]1[C@H]1[C@@H]3[C@@H]4C[C@@H]4[C@@]4(CCC(=O)O4)[C@@]3(C)CC[C@@H]12 [DROSPIRENONE]', 'Compound metabolized'),
  ('CCS(=O)(=O)CCn1c([N+](=O)[O-])cnc1C [TINIDAZOLE]', 'Compound metabolized'),
  ('CCN(CC)CCOC(=O)C1(C2CCCCC2)CCCCC1 [DICYCLOMINE]', 'Compound metabolized'),
  ('OC(c1cc(C(F)(F)F)nc2c(C(F)(F)F)cccc12)C1CCCCN1 (stereo not drawn) [MEFLOQUINE]', 'Compound metabolized'),
  ('CN(C)C(=O)Oc1cc(OC(=O)N(C)C)cc(C(O)CNC(C)(C)C)c1 (stereo not drawn) [BAMBUTEROL]', 'Compound NOT metabolized');

Please look at the following compound next.
[Q] Specify measured Bacterial Biotransformation for CC(=O)CCCCn1c(=O)c2c(ncn2C)n(C)c1=O [PENTOXIFYLLINE] .
[A] Compound NOT metabolized

---

- assay.context: human gut metagenome, 24 h, 2 µM
measurement.name: Bacterial Biotransformation

The examples below pair each entry with its known result.
INSERT INTO assay_data (compound, measurement_name, result) VALUES
  ('CCOC(=O)C1=C[C@]2(CC)CCCN3CCc4c(n1c1ccccc41)[C@@H]32', 'Bacterial Biotransformation', 'Compound metabolized'),
  ('CSc1ccc2c(c1)C(N1CCN(C)CC1)Cc1ccccc1S2.O=C(O)/C=C\C(=O)O (stereo not drawn)', 'Bacterial Biotransformation', 'Compound NOT metabolized'),
  ('CC(NC(C)(C)C)C(=O)c1cccc(Cl)c1 (stereo not drawn)', 'Bacterial Biotransformation', 'Compound NOT metabolized'),
  ('CC(C)C[C@H]1C(=O)N2CCC[C@H]2[C@]2(O)O[C@](NC(=O)[C@@H]3C=C4c5cccc6[nH]c(Br)c(c56)C[C@H]4N(C)C3)(C(C)C)C(=O)N12.CS(=O)(=O)O [BROMOCRIPTINE MESYLATE]', 'Bacterial Biotransformation', 'Compound metabolized'),
  ('Br.CN1CCC[C@@H]1Cc1c[nH]c2ccc(CCS(=O)(=O)c3ccccc3)cc12 [ELETRIPTAN HYDROBROMIDE]', 'Bacterial Biotransformation', 'Compound metabolized');

[Q] Specify measured Bacterial Biotransformation for CC(=O)OCC(=O)NCCCOc1cccc(CN2CCCCC2)c1 [ROXATIDINE ACETATE] .
[A] Compound metabolized

[Q] Specify measured Bacterial Biotransformation for CC(C)(C)NCC(O)COc1cccc2c1CC(O)C(O)C2 (stereo not drawn) .
[A] Compound metabolized

[Q] Specify measured Bacterial Biotransformation for COc1ccnc(C[S+]([O-])c2nc3ccc(OC(F)F)cc3[nH]2)c1OC (stereo not drawn) .
[A] Compound metabolized

---

- assay.context: human gut metagenome, 24 h, 2 µM
measurement.name: Bacterial Biotransformation

INSERT INTO assay_data (compound, result) VALUES
  ('O=C(O)CCC(=O)O.O=C(O[C@H]1CN2CCC1CC2)N1CCc2ccccc2[C@@H]1c1ccccc1 [SOLIFENACIN SUCCINATE]', 'Compound metabolized'),
  ('C[C@]12C=CC(=O)C=C1CC[C@@H]1[C@@H]2C(=O)C[C@@]2(C)[C@H]1CC[C@]2(O)C(=O)CO', 'Compound metabolized'),
  ('O=C1C(CC[S+]([O-])c2ccccc2)C(=O)N(c2ccccc2)N1c1ccccc1 (centres undefined)', 'Compound metabolized');
